test.target: Acetyl-CoA carboxylase 1 (Homo sapiens, UniProt Q13085)
assay.info: Inhibition of full length human recombinant ACC1 expressed in baculovirus infected Sf9 cells incubated for 18 hrs in presence of ATP by envision fluorescence reader analysis

{"smiles.structure": "COc1cc(C(=O)N2CCC3(CC2)CC(=O)c2nc(C(C)(C)C)sc2C3)c2[nH]ccc2c1Cl", "unit.string": "nM", "IC50": 1.3}

Recorded values, source ChEMBL document CHEMBL5335861.
